Quick reference: Kd of the listed items.
Target: JAK2 (JH1domain-catalytic, Y1007F,Y1008F) kinase (Homo sapiens, UniProt O60674, Y1007F/Y1008F)
Construct: JAK2 (JH1domain-catalytic, Y1007F,Y1008F) kinase was expressed as N-terminal fusion
Sequence (O60674 849-1124 Y1007F/Y1008F limits assumed): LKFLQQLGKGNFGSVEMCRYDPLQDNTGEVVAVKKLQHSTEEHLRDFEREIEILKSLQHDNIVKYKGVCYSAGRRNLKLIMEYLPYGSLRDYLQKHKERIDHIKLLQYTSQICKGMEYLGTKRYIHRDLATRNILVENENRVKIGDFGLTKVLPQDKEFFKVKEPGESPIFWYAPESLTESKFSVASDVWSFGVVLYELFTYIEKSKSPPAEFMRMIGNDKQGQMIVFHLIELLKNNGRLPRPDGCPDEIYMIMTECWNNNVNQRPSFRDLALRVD
Assay: JAK2 JH1 Domain Binding Assay
Conditions: qPCR readout

Observe how each entry below is paired with its result.
>>> measured("CN1CCC[C@@H]1COc1cc(Nc2nc3ncc(Oc4cnn5ccncc45)c(Cl)c3n2C)cc(C(F)(F)F)c1")
"< 10 nM"
>>> measured("Cn1c(Nc2cc(C3CC3)nn([C@H]3CCCOC3)c2=O)nc2ncc(Oc3cnn4ccccc34)c(Cl)c21 (single isomer, unassigned)")
"10 to 50 nM"

Pending compound:
Per the records, this compound ( CNc1nccn2ncc(Oc3cnc4nc(Nc5ccc(CN6CC(C#N)C6)c(C(F)(F)F)c5)n(C)c4c3Cl)c12 ) has Kd equal to 10 to 50 nM
